# methodNotes: Liver Microsome Stability Assay (mouse)
# experimentalContext: mouse liver microsomes, with NADPH, 1.0 uM compound
Reported Liver Microsome Stability (Multiple Species): Mouse - % Remaining after 30 min w/NADPH values follow for various molecules

{"molecule": "CCn1cnc(/C=C/c2csc(NC(=O)c3cccn3Cc3ccnc(F)c3)n2)c1 [Compound B65]", "reported": "7.82%"}

Now consider a different molecule.
Enquiry: Any idea what its Liver Microsome Stability (Multiple Species): Mouse - % Remaining after 30 min w/NADPH is? The molecule is Cc1ccc(/C=C/c2csc(NC(=O)c3cccn3Cc3ccnc(F)c3)n2)nc1F [Compound B49]
Return: 12.5%

The values you see were collected from patent US20230286973A1.
